# Tested on: PC-3 prostate
# Measurement description: NCI-60 one-dose screen, 48 h (100 = growth as untreated, 0 = no growth, -100 = all killed)
# Condition summary: 10 µM unless noted
The panel holds about 83,000 compounds, 20% with a hit somewhere; the sample as a whole holds those more often.
For each of the compounds below, state its growth.
Numbers only, in %.

Here are 5 compounds together with their reported answers.
COc1ccc(CNC(=O)C(O)C(Cc2ccccc2)NC(=O)c2[nH]c3ccccc3c(=O)c2C)cc1OC (centres undefined) | 102
CCN1CCN(c2cc(C)nc(NCc3cc(Nc4ccnc5cc(Cl)ccc45)ccc3F)n2)CC1 | 57.6
COC(=O)[C@]12CC[C@@H](C)[C@H](C)[C@@H]1C1=CC[C@@H]3[C@@]4(C)C(C=O)=C[C@@](C)(COC(=O)/C=C/c5ccccc5)[C@@H]4[C@H](O)C[C@@]3(C)[C@]1(C)CC2 | 12
C=CC(=O)Nc1cccc(Oc2nccc(Nc3nnc(C4CC4)s3)n2)c1 | 91.7
CN(Cc1cnc2nc(N)nc(N)c2n1)c1ccc(C(=O)N[C@@H](CCc2nn[nH]n2)c2nn[nH]n2)cc1 | 32.6

Give one value of growth per listed compound.
1. CCN(CC)CCn1nc2c3c(cccc3c1=O)-c1ccccc1-2
2. O=C(Nc1ccc(Nc2ccncc2)cc1)c1ccc(C(=O)Nc2ccc(Nc3ccncc3)cc2)cc1
3. c1cc2ccc3cc2cc1CNCCOCCNCc1ccc2ccc(cc2c1)CNCCOCCNC3
4. COc1ccc2c(c1)C(=O)/C(=C/c1ccc(OCC(=O)Nc3nccs3)cc1)O2
5. NNC(=O)c1nc(N)n(-c2ccc(S(N)(=O)=O)cc2)n1
6. CCCCCCCOc1c(OC)cc(C2CC(=O)Nc3c2c(C)nn3-c2nc3ccccc3[nH]2)cc1OC (centres undefined)
7. CC(=O)n1c(-c2ccc(Cl)cc2)nc2c(c1=O)C(c1ccc(Cl)cc1)c1sc3c(Cl)cccc3c1O2 (centres undefined)

26.6
60.4
-38.1
-62
89.7
12
4.54

Each compound below has a recorded value; state its growth.
1. O=C(NC(CSSCC(NC(=O)c1ccccc1)C(=O)O)C(=O)O)c1ccccc1 (centres undefined)
2. O=S(=O)(O)c1ccc(N/N=C/c2ccccc2Cl)cc1
3. Cn1cc2c(c1)-c1nc(Nc3ccccc3)ncc1CC2
4. CC(C)C(=O)Nc1n[nH]c2cc(-c3cccc(NS(=O)(=O)C4CC4)c3)ccc12

1: 95.8; 2: 99.2; 3: 58.5; 4: 64

###

# Test system: OVCAR-8 ovarian
# Measurement description: NCI-60 one-dose screen, 48 h (100 = growth as untreated, 0 = no growth, -100 = all killed)
# Condition summary: 10 µM unless noted
This is part of a sample that, as a whole, favours compounds with a hit. Of some 83,000 tested, about 20% had one in any assay.
What growth was measured for each of the following?
One number for each entry, in %.

# example entries with known answers
Cc1ccc(N2CCN(C(=S)c3cccs3)CC2)cc1 | 100
CC(C)(C)OC(=O)Nc1ccc2c(c1)C(NC(=O)Nc1cccc(C#N)c1)CC(C)(C)O2 (stereo not given) | 45.6
COC(=O)c1ccc(CSc2nnc(-c3c(C)nc4ccc(C)cn34)o2)cc1 | 103
Cc1ccc(Cl)cc1NC(=O)c1cc2ccccc2cc1O | 7.85
C=C(C)[C@@H]1CC[C@]2(C)[C@H](CC=C3[C@@H]4CC(C)(C)CC[C@]4(C(N)=O)CC[C@]32C)[C@@]1(C)CCC#N | 26.5
COc1ccc(-c2nc(SCC(=O)Nc3nc(-c4ccccc4)cs3)[nH]c(=O)c2C#N)cc1 | 101
C[n+]1cccc(CC(=O)NO)c1 | 95.3
C[n+]1cc2c3c(ccc2c2ccc4cc5c(cc4c21)OCO5)OCO3 | -79.5
Cc1ccc(-c2cc(-c3cccnc3)[nH]c(=O)c2C#N)cc1 | 103

Now look at this entry.
Entry `COc1cc(Cn2ncc3ccc(NC(=O)c4cc5ccccc5oc4=N)cc32)cc(OC)c1OC` has what growth? 86.8

###

What growth was measured for each of the following?
# Tested on: NCI-H460 lung
# Measurement description: NCI-60 one-dose screen, 48 h (100 = growth as untreated, 0 = no growth, -100 = all killed)
# Condition summary: 10 µM unless noted
This is part of a sample that, as a whole, favours compounds with a hit. Of some 83,000 tested, about 20% had one in any assay.
Answers are plain numbers, in %.

Some molecules with known growth results, for comparison:
O=C(Nc1ccc(Cl)cc1)Nc1ccc(Cl)c(C(F)(F)F)c1 | 0.218
COc1cc(N=Nc2ccc(N)cc2)c(OC)cc1N=Nc1ccccc1.[Cl][Zn][Cl] | 109
O=c1c2cc(F)ccc2sc2c(NCCCN3CCCC3)nc3ccccc3c12 | 12
O=C(Cc1ccc(F)c(F)c1)Nc1cc(C2(C(F)(F)F)CC2)nn1Cc1ccccc1 | 0.876
COc1cccc(-c2nn(-c3ccccc3)cc2-c2ccnc(NCCCNC(=O)c3cccc(C(F)(F)F)c3)c2)c1 | 23.4

// for each molecule below, give its growth
1. COc1cccc(-c2nn(-c3ccccc3)cc2-c2ccnc(NCCCNC(=O)Nc3ccc(Cl)c(Cl)c3)c2)c1
2. COC(=O)[C@]12CC[C@@H](C)[C@H](C)[C@@H]1C1=CC[C@@H]3[C@@]4(C)C(C=O)=C[C@@](C)(COC(C)=O)[C@@H]4C(=O)C[C@@]3(C)[C@]1(C)CC2
3. O=c1[nH]ccc2nc(N3CCC(O)CC3)nc(Nc3ccc(N4CCOCC4)cc3)c12
4. COc1cc(/C=C/C(=O)c2c(C)nc3ccccc3c2/C=C/c2ccc(C)cc2)cc(OC)c1OC
5. Cc1ccc(-n2nc3c(c(C#N)c2=O)CC(c2ccccc2Cl)C([N+](=O)[O-])=C3O)cc1 (stereo unspecified)

1: 18.5; 2: 18.8; 3: 36.2; 4: -22.1; 5: 99.3

Could I get growth for every one of these entries?
1. COc1cc(C2CC(=O)Nc3c2c(C)nn3-c2nc3ccccc3[nH]2)c(OC)c(OC)c1OC (stereo unspecified)
2. COc1cccc(C(=O)NCCNc2cc(-c3cn(-c4ccccc4)nc3-c3cccc(OC)c3)ccn2)c1
3. C[C@H]1[C@H]2[C@H]3CC[C@@H]4[C@@]5(C)C/C(=C/c6cccnc6)C(=O)C(C)(C)[C@@H]5CC[C@@]4(C)[C@]3(C)CC[C@]23CO[C@]1(C)[C@@H](C(=O)/C=C\c1cccnc1)C3
4. CC1CC(C(C)(C)C)C(=O)C(C(C)(C)C)C1 (stereo unspecified)
5. Cc1ccc(N(C(=O)CCc2c[nH]c3ccccc23)[C@H](C(=O)Nc2ccc(Cl)cc2)c2cccc([N+](=O)[O-])c2)cc1
6. COC(=O)[C@]12CC[C@@H](C)[C@H](C)[C@@H]1C1=CC[C@@H]3[C@@]4(C)C(C=O)=C[C@@](C)(COS(C)(=O)=O)C4[C@H](O)C[C@@]3(C)[C@]1(C)CC2 (stereo partly specified)

39
57.4
-45.3
108
98.2
-58.2

###

Assignment: determine reported growth for the given molecules.
# System: DU-145 prostate
# Measurement description: NCI-60 one-dose screen, 48 h (100 = growth as untreated, 0 = no growth, -100 = all killed)
# Condition summary: 10 µM unless noted
# Description: Cells are grown in 96 well plates and exposed to the test compound for 48 hours. Compounds are tested at a single concentration, which is 10^-5 M for most compounds. The reported endpoint is percent growth (GI% or GIPRCNT), where numbers from 0 - 100% represent growth inhibition, and numbers from -100% - 0 represent cell death. For example, a value of 40 represents 60% growth inhibition. A value of 0 means no net growth occurred over the course of the experiment. […]
About 83,000 compounds went through this panel and 20% of them were active in at least one assay; those are over-represented in the sample as a whole. Calls of active or inactive are those of the source. The calls were made as follows: active = growth percent below 10; inactive = the rest.

COc1ccc(C2=NN(C(=O)c3cc(OC)c(OC)c(OC)c3)C(c3ccc(Cl)cc3)C2)cc1OC (centres undefined) | 7.23% (active)
CCCCNC(=O)Oc1ccc2c(=O)c3sc4c(=O)c5ccccc5c(=O)c4c3c(=O)c2c1 | -98.5% (active)

Please give growth, item by item, for the list that follows.
1. CN(c1ccccc1)c1ccc2c(c1)OCCC21CC1Nc1cnccc1C(=O)O (centres undefined)
2. O=C1CCC2=C3C4CCCCC4C(=O)C4CCCC(OC2C1)C34 (centres undefined)
3. C=CCSc1nc2ccccc2cc1/C=N/O

1. 88.8% (inactive)
2. 0.534% (active)
3. 110% (inactive)

Please look at the items below and tell me growth for each one, in order.
1. Fc1ccc(CNc2c3ccccc3nc3ccccc23)cc1F
2. COc1cc(/C=C2\C(=O)ON=C2C)cc(OC)c1OC
3. C[C@H]1[C@H]2[C@H]3CC[C@@H]4[C@@]5(C)C/C(=C/c6ccco6)C(=O)C(C)(C)[C@@H]5CC[C@@]4(C)[C@]3(C)CC[C@]23CO[C@]1(C)[C@@H](C(=O)/C=C\c1ccco1)C3
4. CC(=O)[C@@H]1CC[C@]2(COS(=O)(=O)c3ccc(C)cc3)CC[C@]3(C)[C@H](CC[C@@H]4[C@@]5(C)CCCNC(C)(C)[C@@H]5CC[C@]43C)[C@@H]12

1. 39.5% (inactive)
2. 108% (inactive)
3. 111% (inactive)
4. 86.6% (inactive)

Items follow; give growth for each.
1. Cc1ccc(C(=NN=C(N)N)c2ccc(C)cc2)cc1
2. COc1cc(CCC[P+](c2ccccc2)(c2ccccc2)c2ccccc2)cc2c1OCO2
3. COc1ccccc1N1C(=O)/C(=C/C2=Cc3ccccc3OC2)SC1=S
4. CCN(CC)S(=O)(=O)c1cccc(-c2ccc3c(NC(=O)C4CC4)n[nH]c3c2)c1
5. C=C1C(=O)O[C@H]2[C@H]1CC/C(COC(=O)C(=O)c1cn(C)c3ccc(OC)cc13)=C\CC[C@@]1(C)O[C@@H]21

1: -16.6% (active); 2: 48.2% (inactive); 3: 100% (inactive); 4: 25.4% [6.25 µM] (inactive); 5: -79% (active)
